Target: HLA-A*02:11
Test: IEDB peptide-MHC binding, purified MHC/competitive/fluorescence; filed as Kd, often an IC50 or EC50 that approximates it; bounds were set here for any values at or beyond the usual limits of such assays
Conditions: source organism: Campylobacter jejuni subsp. jejuni NCTC 11168 = ATCC 700819
readout.kind: Kd

Please list Kd recorded for the sequence AELIDSFTW
≥ 20 µM

====

Molecular target: HLA-B*07:02
Assay: IEDB peptide-MHC binding, purified MHC/direct/fluorescence; filed as Kd, often an IC50 or EC50 that approximates it; bounds were set here for any values at or beyond the usual limits of such assays
Settings: source organism: Giardia lamblia ATCC 50803
readout.kind: pKd
Kindly note that pKd refers to -log10 of the concentration in mol/L and answer with the value alone.

Please give measured pKd of the following entry: ATAQNRRAL
7.64
